FYI, the data here is from ChEMBL document CHEMBL5137126.

- measurement_notes: Cytotoxicity against mouse L929 cells assessed as inhibition of cell growth incubated for 5 days by MTT assay
- Format: toxicity, cell-based
measured_parameter: IC50 at 5 days
Include the unit after the number when you answer.

Name the recorded IC50 at 5 days for "Cc1cc2[nH]cc(C=O)c2c2c1CC(C)(C)C2" .
41 µM

Moving on to "C=C(C(=O)O)[C@]12O[C@]13CC(C)(C)C[C@@H]3[C@H](C)[C@H](O)C2=O"
22 µM

Moving on to "C/C(=C\c1csc(C)n1)[C@H]1C[C@H]2O[C@@]2(C)CCC[C@H](C)[C@@H](O)[C@@H](C)C(=O)C(C)(C)[C@H](O)CC(=O)O1"
0.001 µM

Moving on to "C[C@@H]1C(=O)c2[nH]cc(CO)c2C2=CC(C)(C)C[C@@H]21"
68 µM

* * *

- Test system: SK-OV-3
- measurement_notes: Cytotoxicity against human SK-OV-3 cells assessed as inhibition of cell growth incubated for 5 days by MTT assay
- Format: functional, cell-based
- conditions_used: SK-OV-3, 120 h
Answer each item with its documented IC50.
Respond with the bare value in µM.

Name the recorded IC50 for "C/C(=C\c1csc(C)n1)[C@H]1C[C@H]2O[C@@]2(C)CCC[C@H](C)[C@@H](O)[C@@H](C)C(=O)C(C)(C)[C@H](O)CC(=O)O1" .
0.0075

Moving on to "C=C(C(=O)O)[C@]12O[C@]13CC(C)(C)C[C@@H]3[C@H](C)[C@H](O)C2=O"
20
